targetUnderTest: Prostaglandin G/H synthase 1 (Ovis aries, UniProt P05979)
Sequence (P05979 whole entry): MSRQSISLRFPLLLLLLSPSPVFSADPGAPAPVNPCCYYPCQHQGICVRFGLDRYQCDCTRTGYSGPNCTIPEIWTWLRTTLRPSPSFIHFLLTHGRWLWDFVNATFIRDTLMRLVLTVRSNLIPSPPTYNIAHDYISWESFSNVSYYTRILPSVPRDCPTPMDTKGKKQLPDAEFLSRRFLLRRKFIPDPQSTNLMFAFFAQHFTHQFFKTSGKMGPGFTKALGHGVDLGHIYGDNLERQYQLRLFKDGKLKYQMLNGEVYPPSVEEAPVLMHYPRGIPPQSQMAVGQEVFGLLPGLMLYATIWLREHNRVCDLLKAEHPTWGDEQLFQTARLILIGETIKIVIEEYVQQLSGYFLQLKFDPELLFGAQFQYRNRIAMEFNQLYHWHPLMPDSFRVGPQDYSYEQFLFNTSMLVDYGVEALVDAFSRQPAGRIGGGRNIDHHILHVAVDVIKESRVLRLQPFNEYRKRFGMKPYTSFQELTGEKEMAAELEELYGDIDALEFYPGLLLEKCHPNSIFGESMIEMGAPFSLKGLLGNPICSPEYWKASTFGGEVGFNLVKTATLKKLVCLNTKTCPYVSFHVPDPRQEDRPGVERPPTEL
pIC50: −log10 of the molar value.
So basically: pIC50 at 5 or higher? That is Fulfilled. Lower than 5? That is Not fulfilled.

Recorded results for 3 compounds are shown here.
NS(=O)(=O)c1ccc(N2N=C(c3cccs3)CC2c2ccco2)cc1 (stereo not drawn) : Not fulfilled
NS(=O)(=O)c1ccc(N2N=C(c3ccco3)CC2c2ccc(Cl)cc2)cc1 (stereo not drawn) : Fulfilled
NS(=O)(=O)c1ccc(N2N=C(c3ccco3)CC2c2ccc(C(F)(F)F)cc2)cc1 (stereo not drawn) : Fulfilled

-- ask Please indicate if the recorded pIC50 for NS(=O)(=O)c1ccc(N2N=C(c3cccs3)CC2c2ccc(C(F)(F)F)cc2)cc1 (stereo not drawn) meets or exceeds 5.
-- reply Fulfilled

* * *

Test system: Rattus norvegicus
procedureText: Ulcerogenic activity in po dosed formalin-induced rat foot paw edema model assessed as ulcer index at antiinflammatory ED50
Assay type: toxicity, organism-based
conditionSet: in vivo
metric: UI

-- ask What value of measured UI is listed for NS(=O)(=O)c1ccc(N2N=C(c3cccs3)CC2c2ccc(C(F)(F)F)cc2)cc1 (stereo not given) ?
-- reply 3.8

* * *

Reported IC50 is given for each of the following compounds.
targetUnderTest: Prostaglandin G/H synthase 1 (Ovis aries, UniProt P05979)
Sequence (P05979 whole entry): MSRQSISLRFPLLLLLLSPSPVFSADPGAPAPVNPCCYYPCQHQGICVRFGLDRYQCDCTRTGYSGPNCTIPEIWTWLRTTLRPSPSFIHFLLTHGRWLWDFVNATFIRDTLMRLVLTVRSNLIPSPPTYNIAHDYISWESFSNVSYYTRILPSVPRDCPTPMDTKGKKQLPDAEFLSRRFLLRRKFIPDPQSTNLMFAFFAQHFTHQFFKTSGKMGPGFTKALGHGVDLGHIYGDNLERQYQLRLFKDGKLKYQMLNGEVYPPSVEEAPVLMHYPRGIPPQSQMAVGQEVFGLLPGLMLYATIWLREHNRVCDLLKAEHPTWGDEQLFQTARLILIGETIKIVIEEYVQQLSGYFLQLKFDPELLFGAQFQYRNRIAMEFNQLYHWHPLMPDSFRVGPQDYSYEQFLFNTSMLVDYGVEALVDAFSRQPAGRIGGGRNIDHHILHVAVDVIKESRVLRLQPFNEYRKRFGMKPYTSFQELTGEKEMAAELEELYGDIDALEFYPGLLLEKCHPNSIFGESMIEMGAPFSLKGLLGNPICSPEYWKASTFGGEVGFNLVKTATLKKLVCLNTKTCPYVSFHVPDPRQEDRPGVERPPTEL
Express it in µM; write the number only.

Solved entries:
NS(=O)(=O)c1ccc(N2N=C(c3cccs3)CC2c2ccc(Cl)cc2)cc1 (centres undefined) : 8.71
COc1cc(C2CC(c3ccco3)=NN2c2ccc(S(N)(=O)=O)cc2)cc(OC)c1OC (centres undefined) : 7.36
NS(=O)(=O)c1ccc(N2N=C(c3ccco3)CC2c2ccccc2)cc1 (centres undefined) : 10.2

From here, focus on the item given below.
-- ask What value of measured IC50 is listed for COc1ccc(C2CC(c3cccs3)=NN2c2ccc(S(N)(=O)=O)cc2)cc1 (centres undefined) ?
-- reply 11.7

* * *

System: Rattus norvegicus
procedureText: Ulcerogenic activity in po dosed formalin-induced rat foot paw edema model assessed as ulcer index at antiinflammatory ED50
Type: toxicity, organism-based
conditionSet: in vivo
Reported UI is given for each of the following compounds.

NS(=O)(=O)c1ccc(N2N=C(c3cccs3)CC2c2cccs2)cc1 (centres undefined) : 2.7
NS(=O)(=O)c1ccc(N2N=C(c3ccco3)CC2c2cccs2)cc1 (centres undefined) : 3.03
NS(=O)(=O)c1ccc(N2N=C(c3ccco3)CC2c2ccc(C(F)(F)F)cc2)cc1 (centres undefined) : 1.2

-- ask What value of measured UI is listed for COc1ccc(C2CC(c3ccco3)=NN2c2ccc(S(N)(=O)=O)cc2)cc1 (centres undefined) ?
-- reply 3.13

-- ask Okay, and COc1ccc(C2CC(c3cccs3)=NN2c2ccc(S(N)(=O)=O)cc2)cc1 (centres undefined) ?
-- reply 2.97

-- ask Okay, and NS(=O)(=O)c1ccc(N2N=C(c3cccs3)CC2c2ccco2)cc1 (centres undefined) ?
-- reply 4.15

-- ask Okay, and NS(=O)(=O)c1ccc(N2N=C(c3ccco3)CC2c2ccccc2)cc1 (centres undefined) ?
-- reply 4.6

-- ask Okay, and COc1cc(C2CC(c3ccco3)=NN2c2ccc(S(N)(=O)=O)cc2)cc(OC)c1OC (centres undefined) ?
-- reply 2.7

-- ask Okay, and NS(=O)(=O)c1ccc(N2N=C(c3ccco3)CC2c2ccco2)cc1 (centres undefined) ?
-- reply 1.2
